# target.under.test: mouse A1 ΔC20 (mouse) (UniProt Q07440)
# Sequence (Q07440 other isoform, or with tags, fused parts or gaps mutant): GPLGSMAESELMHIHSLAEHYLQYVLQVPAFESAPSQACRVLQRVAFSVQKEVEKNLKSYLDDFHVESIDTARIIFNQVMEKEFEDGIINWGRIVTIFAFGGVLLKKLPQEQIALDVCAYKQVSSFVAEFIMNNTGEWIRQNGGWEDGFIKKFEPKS
# measurement.description: Biacore solution competition against immobilised mouse wtBimBH3
pIC50: −log10 of the molar value.
Here, each record is paired with measured pIC50 data.

binder: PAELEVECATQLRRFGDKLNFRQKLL [Noxa (18-43) BH3 peptide, human]
pIC50: 6.74
--
binder: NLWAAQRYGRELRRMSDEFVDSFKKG [Bad (103-128) BH3 peptide, human]
pIC50: 4.82
--
binder: HRAEVQIARKLQCIADQFHRLHTQ [m Bmf (128-151) BH3 peptide]
pIC50: 5.74
--
binder: DIIRNIARHLAQVGDSMDRSIPPG [Bid (81-104) BH3 peptide, human]
pIC50: 8.03
